# Test system: S. mutans OMZ 176 (serotype d)
# Method notes: microbe, parasite or virus in culture
# Assay type: cell-based
# Run parameters: Streptococcus mutans, read-out: Adherence-inhibiting activity (AIP)
# Protocol: The adherence-inhibiting activity of the triterpenes of the formula (I) was measured using an inner wall of a test tube in place of the surface of a tooth. […] The same procedure is repeated using 30 μl of distilled water or DMSO in place of the sample solution to obtain a control. The absorbance of the control is represented by Ab(Cont.). Adherence percentage of bacteria is calculated from the following equation. […]
Endpoint: inhibition at 100 µg/mL

inhibition at 100 µg/mL for `C[C@@H]1CC[C@]2(C(=O)O)CC[C@]3(C)C(=CC[C@@H]4[C@@]5(C)CC[C@H](O)C(C)(C)[C@@H]5CC[C@]43C)[C@@H]2[C@]1(C)O` ? > 50%

Please look up its inhibition at 100 µg/mL: CC(=O)O[C@H]1CC[C@]2(C)[C@H]3CC=C4[C@@H]5CC(C)(C)CC[C@]5(C(=O)O)CC[C@@]4(C)[C@]3(C)CC[C@H]2C1(C)C [reference compound] 25 to 50%

Bench note: what inhibition at 100 µg/mL did `C[C@H]1[C@H](C)CC[C@]2(C(=O)O)CC[C@]3(C)C(=CC[C@@H]4[C@@]5(C)CC[C@H](O)C(C)(C)[C@@H]5CC[C@]43C)[C@H]12` show? > 50%

Can you share its inhibition at 100 µg/mL? I mean this compound: `CC1(C)CC[C@]2(C(=O)O)CC[C@]3(C)C(=CC[C@@H]4[C@@]5(C)CC[C@H](O)C(C)(C)[C@@H]5CC[C@]43C)[C@@H]2C1` > 50%

* * *

What inhibition at 100 µg/mL was measured for each of the following?
# Test system: S. mutans OMZ 176 (serotype d)
# Method notes: microbe, parasite or virus in culture
# Assay type: cell-based
# Run parameters: Streptococcus mutans, read-out: Adherence-inhibiting activity (AIP)

Recorded inhibition at 100 µg/mL of CC1(C)CC[C@]2(C)CC=C3[C@]4(C)CC[C@H]5C(C)(C)[C@@H](O)CC[C@]5(C)[C@H]4CC[C@@]3(C)[C@@H]2C1 [Taraxerol, reference compound] , please. < 25%

What does the record list as inhibition at 100 µg/mL for CC1(C)[C@@H](O[C@H]2O[C@H](C(=O)O)[C@@H](O)[C@H](O)[C@H]2O[C@@H]2O[C@H](C(=O)O)[C@@H](O)[C@H](O)[C@H]2O)CC[C@]2(C)[C@H]3C(=O)C=C4[C@@H]5C[C@@](C)(C(=O)O)CC[C@]5(C)CC[C@@]4(C)[C@]3(C)CC[C@@H]12 [Glycyrrizic acid, reference compound] ? < 25%

Look up inhibition at 100 µg/mL: `CC1(C)CC[C@]2(C(=O)O)CC[C@]3(C)C(=CC[C@@H]4[C@@]5(C)CC[C@H](O)[C@@](C)(CO)[C@@H]5CC[C@]43C)[C@@H]2C1` > 50%

So what's the measured inhibition at 100 µg/mL for this one? CC1(C)CC[C@]2(CO)CC[C@]3(C)C(=CC[C@@H]4[C@@]5(C)CC[C@H](O)C(C)(C)[C@@H]5CC[C@]43C)[C@@H]2C1 [Oleanolic acid (acid reductant) (b), reference compound] < 25%

Would you kindly share the measured inhibition at 100 µg/mL for COC(=O)[C@]12CCC(C)(C)C[C@H]1C1=CC[C@@H]3[C@@]4(C)CC[C@H](O)C(C)(C)[C@@H]4CC[C@@]3(C)[C@]1(C)CC2 [Methyl oleanolate (17-position) (a), Methyl oleanolate, reference compound] ? < 25%
